Below are pIC50 values recorded for PDGFRβ (Homo sapiens, UniProt P09619).
pIC50: −log10 of the molar value.

Some compounds with known pIC50 results, for comparison:
{"compound": "Cc1ccc(NC(=O)c2ccc(/C=C/C(=O)NO)cc2)cc1Nc1nc(-c2cccnc2)cs1 [[19]]", "pIC50": "4.15 to 5.68"}
{"compound": "Nc1ccccc1NC(=O)c1ccc(C(=O)Nc2cccc(Nc3nc(-c4cccnc4)cs3)c2)cc1 [[18], hydrate]", "pIC50": "4.15 to 5.68"}

**Q:** Notebook entry, PDGFRβ (Homo sapiens, UniProt P09619) assay: pIC50 of Cc1ccc(NCc2ccc(C(=O)Nc3ccccc3N)cc2)cc1Nc1nccc(-c2cccnc2)n1 [[15]] = ?
**A:** 4.15 to 5.68

###

target: recombinant HDAC1 isolated from HEK293 cells with heterologous HDAC1 expression (Homo sapiens); assay: Fluorimetric rHDAC1 activity assay; conditions: only a range of IC50 over the compounds given; read-out: rHDAC1 inhibitory activity IC50
Sequence (Q13547 whole entry): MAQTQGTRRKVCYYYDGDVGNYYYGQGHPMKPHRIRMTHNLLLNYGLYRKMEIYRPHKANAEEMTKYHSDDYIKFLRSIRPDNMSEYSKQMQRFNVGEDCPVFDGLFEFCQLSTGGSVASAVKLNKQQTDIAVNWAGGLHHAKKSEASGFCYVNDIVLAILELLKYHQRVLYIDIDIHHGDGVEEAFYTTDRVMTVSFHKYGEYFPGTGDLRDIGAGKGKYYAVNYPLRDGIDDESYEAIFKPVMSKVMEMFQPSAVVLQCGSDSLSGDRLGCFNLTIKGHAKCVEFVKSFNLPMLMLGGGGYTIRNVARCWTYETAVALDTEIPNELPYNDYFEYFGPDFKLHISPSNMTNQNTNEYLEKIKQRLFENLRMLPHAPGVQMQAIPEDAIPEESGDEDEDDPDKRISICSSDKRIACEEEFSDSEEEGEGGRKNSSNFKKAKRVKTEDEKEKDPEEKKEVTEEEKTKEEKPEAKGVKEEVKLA
Counter-ions that a name gives are not always drawn.
measurement_name: IC50

{"compound": "O=C(/C=C/c1cccc(-c2ccc3ncnc(Nc4ccc(OCc5cccc(F)c5)c(Cl)c4)c3c2)c1)NO [[9]]", "val": "≥ 0.0353 µM"}

**Q:** Fill in: IC50 of O=C(/C=C/c1ccc(-c2ccc3ncnc(Nc4ccc(OCc5cccc(F)c5)c(Cl)c4)c3c2)cc1)NO [[8], hydrochloride monohydrate] is ___
**A:** ≥ 0.0353 µM

**Q:** Same for Nc1ccccc1NC(=O)/C=C/c1ccc(-c2ccc3ncnc(Nc4ccc(OCc5cccc(F)c5)c(Cl)c4)c3c2)cc1 [[10]]
**A:** ≥ 0.0353 µM

**Q:** Now consider C#Cc1cccc(Nc2ncnc3ccc(OCc4ccc(C(=O)Nc5ccccc5N)cc4)cc23)c1 [[44]] .
**A:** ≥ 0.0065 µM

**Q:** Then this compound: Nc1ccccc1NC(=O)/C=C/c1cccc(-c2ccc3ncnc(Nc4ccc(OCc5cccc(F)c5)c(Cl)c4)c3c2)c1 [[11]]
**A:** ≥ 0.0353 µM

**Q:** Now the compound O=C(/C=C/c1ccc(C(=O)Nc2cccc(Nc3nc(-c4cccnc4)cs3)c2)cc1)NO [[22]]
**A:** 0.077 to 1.4 µM

###

tested on: A549 NSCLC cell line; assay: Cellular cytotoxicity assay (Alamar Blue), A549; type: cell-based; details: Homo sapiens, A549, 72 h, read-out: Cytotoxicity towards A549 NSCLC cell line IC50 (M)
Structures can show the parent of a compound that is named as a salt.
measurement_name: IC50

{"compound": "O=C(/C=C/c1ccc(-c2ccc3ncnc(Nc4ccc(OCc5cccc(F)c5)c(Cl)c4)c3c2)o1)NO [[2], hydrochloride monohydrate]", "measurement_name": "IC50", "val": "≥ 1.1e-06 M"}

Shifting focus to the compound that follows.
**Q:** Form entry - test system: A549 NSCLC cell line; read-out: IC50; compound: O=C(/C=C/c1ccc(-c2ccc3ncnc(Nc4ccc(OCc5cccc(F)c5)c(Cl)c4)c3c2)cc1)NO [[8], hydrochloride monohydrate]
**A:** ≥ 1.1e-06 M

###

Test system: EOL1 acute hypereosinophilic myeloid leukemia cell line
Experiment: Cellular cytotoxicity assay (Alamar Blue), EOL1
Assay type: cell-based
Details: Homo sapiens, 72 h, only a range over the listed compounds is given, read-out: Cytotoxicity towards EOL1 cell line IC50
Protocol: The anti-proliferative activity of the chimeric HDAC and protein kinase inhibitory chimeric compounds of the present invention was evaluated using HeLa cervical carcinoma, A549 NSCLC, SKOV3 ovarian carcinoma, Cal27 head and neck cancer, K562 chronic myeloid leukemia (CML) and EOL1 acute hypereosinophilic myeloid leukemia, cell lines. […] After 4 h incubation at 37° C. the fluorescence was measured at an extinction of 544 nm and an emission of 590 nm. […] Viabilities were expressed as % values. […]
# reported IC50; entries follow

// worked examples, IC50 included
{"compound": "CN(C(=O)c1ccc(C(=O)Nc2ccccc2N)cc1)c1ccc(Cl)c(Nc2nccc(-c3cccnc3)n2)c1 [[35]]", "IC50": "3 to 780 nM"}
{"compound": "Cc1ccc(NC(=O)c2ccc(C(=O)Nc3ccccc3N)s2)cc1Nc1nccc(-c2cccnc2)n1 [[26]]", "IC50": "3 to 780 nM"}
{"compound": "Cc1ccc(NC(=O)c2ccc(/C=C/C(=O)NO)cc2)cc1Nc1nc(-c2cccnc2)cs1 [[19]]", "IC50": "3 to 780 nM"}

For the next question, use this compound.
**Q:** Can you look up the measured IC50 of Cc1ccc(NC(=O)c2ccc(C(=O)Nc3ccccc3N)cc2)cc1Nc1nccc(-c2cccnc2)n1 [[14], trifluoroacetic acid] for me?
**A:** 3 to 780 nM
